protocol text: Volume of distribution at steady state in mouse at 0.5 mg/kg, iv
Assay type: ADME, organism-based
assay setup: in vivo, read-out: Vdss
measured quantity: Vd

>>> value_measured("CC(C)N(C)c1ccc([C@H]2C[C@@]3(C)[C@@H](CC[C@@]3(O)C#CC(C)(C)C)[C@@H]3CCC4=CC(=O)CC[C@@H]4[C@H]32)cc1")
"5.01 L/kg"

###

assay system: Androgen receptor (Homo sapiens, UniProt P10275)
Sequence (P10275 whole entry): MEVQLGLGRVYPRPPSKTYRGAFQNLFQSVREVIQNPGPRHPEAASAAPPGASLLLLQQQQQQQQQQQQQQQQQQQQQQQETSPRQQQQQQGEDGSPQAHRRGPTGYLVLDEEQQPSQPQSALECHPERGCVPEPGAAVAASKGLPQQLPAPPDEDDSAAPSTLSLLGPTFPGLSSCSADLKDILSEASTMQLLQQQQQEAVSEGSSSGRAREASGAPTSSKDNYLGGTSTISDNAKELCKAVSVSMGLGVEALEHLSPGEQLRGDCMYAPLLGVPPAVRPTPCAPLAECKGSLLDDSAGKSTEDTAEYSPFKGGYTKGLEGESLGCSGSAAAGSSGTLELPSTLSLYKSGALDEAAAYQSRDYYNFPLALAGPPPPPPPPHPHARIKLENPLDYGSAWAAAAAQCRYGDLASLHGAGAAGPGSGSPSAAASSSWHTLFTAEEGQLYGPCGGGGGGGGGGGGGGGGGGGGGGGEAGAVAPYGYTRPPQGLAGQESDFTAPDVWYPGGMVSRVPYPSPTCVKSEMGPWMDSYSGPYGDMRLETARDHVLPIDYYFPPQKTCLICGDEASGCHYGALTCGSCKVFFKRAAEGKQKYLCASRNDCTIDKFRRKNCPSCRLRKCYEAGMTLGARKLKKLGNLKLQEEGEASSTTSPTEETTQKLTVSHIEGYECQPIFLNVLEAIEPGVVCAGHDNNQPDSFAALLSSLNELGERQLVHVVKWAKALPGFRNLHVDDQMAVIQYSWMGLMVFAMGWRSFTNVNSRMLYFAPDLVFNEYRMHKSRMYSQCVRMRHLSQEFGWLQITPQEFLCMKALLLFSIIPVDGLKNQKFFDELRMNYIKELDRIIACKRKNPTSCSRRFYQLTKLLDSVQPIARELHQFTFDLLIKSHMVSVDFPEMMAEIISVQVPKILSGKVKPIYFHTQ
protocol text: Antagonist activity at AR (unknown origin) expressed in human LNCaP cells assessed as reduction in R1881-induced response incubated for 20 hrs by luciferase reporter gene assay
measured quantity: IC50 (nM)

>>> value_measured("CC(C)N(C)c1ccc([C@H]2C[C@@]3(C)[C@@H](CC[C@@]3(O)C#CC(C)(C)C)[C@@H]3CCC4=CC(=O)CC[C@@H]4[C@H]32)cc1")
484
